Experiment: Sirolimus whole blood pharmacokinetics
Format: in vivo, human
Details: human, whole blood, oral, 5 mg, Cmax, sirolimus 5 mg, with ketoconazole, n=6
Measurement name: Cmax
Field: value (include unit after the number)

Cmax for CO[C@H]1C[C@@H]2CC[C@@H](C)[C@@](O)(O2)C(=O)C(=O)N2CCCC[C@H]2C(=O)O[C@H]([C@H](C)C[C@@H]2CC[C@@H](O)[C@H](OC)C2)CC(=O)[C@H](C)/C=C(\C)[C@@H](O)[C@@H](OC)C(=O)[C@H](C)C[C@H](C)/C=C/C=C/C=C/1C is 71.2 ng/mL

---

Experiment: Sirolimus whole blood pharmacokinetics
Format: in vivo, human
Conditions: human, whole blood, oral, 5 mg, AUC∞, sirolimus 5 mg, without ketoconazole, n=6
Measurement name: AUC(0-inf)
Respond with the figure and its unit, in that order.

# AUC(0-inf) (compound: CO[C@H]1C[C@@H]2CC[C@@H](C)[C@@](O)(O2)C(=O)C(=O)N2CCCC[C@H]2C(=O)O[C@H]([C@H](C)C[C@@H]2CC[C@@H](O)[C@H](OC)C2)CC(=O)[C@H](C)/C=C(\C)[C@@H](O)[C@@H](OC)C(=O)[C@H](C)C[C@H](C)/C=C/C=C/C=C/1C ) is 676 ng·h/mL

---

Experiment: Sirolimus whole blood pharmacokinetics
Type: in vivo, human
Settings: human, whole blood, oral, 6 mg, Cmax, sirolimus 6 mg, without ketoconazole, n=3
Measurement name: Cmax
Answer with the value and then the unit.

Reported Cmax of CO[C@H]1C[C@@H]2CC[C@@H](C)[C@@](O)(O2)C(=O)C(=O)N2CCCC[C@H]2C(=O)O[C@H]([C@H](C)C[C@@H]2CC[C@@H](O)[C@H](OC)C2)CC(=O)[C@H](C)/C=C(\C)[C@@H](O)[C@@H](OC)C(=O)[C@H](C)C[C@H](C)/C=C/C=C/C=C/1C : 15 ng/mL

---

Experiment: Sirolimus whole blood pharmacokinetics
Format: in vivo, human
Details: human, whole blood, oral, 6 mg, T1/2, sirolimus 6 mg, without ketoconazole, n=3
Measurement name: half-life (h)
API: value field is a number in h; no unit string.

Per the records, this compound ( CO[C@H]1C[C@@H]2CC[C@@H](C)[C@@](O)(O2)C(=O)C(=O)N2CCCC[C@H]2C(=O)O[C@H]([C@H](C)C[C@@H]2CC[C@@H](O)[C@H](OC)C2)CC(=O)[C@H](C)/C=C(\C)[C@@H](O)[C@@H](OC)C(=O)[C@H](C)C[C@H](C)/C=C/C=C/C=C/1C [Sirolimus] ) has half-life equal to 78

---

Assay: Sirolimus whole blood pharmacokinetics
Format: in vivo, human
Conditions: human, whole blood, oral, 45 mg, Tmax [SD], sirolimus alone study, 24 hours apart (total 90 mg), N=2, mean
Measurement name: Tmax (h)
Respond with the bare value in h.

Tmax for CO[C@H]1C[C@@H]2CC[C@@H](C)[C@@](O)(O2)C(=O)C(=O)N2CCCC[C@H]2C(=O)O[C@H]([C@H](C)C[C@@H]2CC[C@@H](O)[C@H](OC)C2)CC(=O)[C@H](C)/C=C(\C)[C@@H](O)[C@@H](OC)C(=O)[C@H](C)C[C@H](C)/C=C/C=C/C=C/1C [Sirolimus] is 2.1

---

Assay: Sirolimus whole blood pharmacokinetics
Type: in vivo, human
Conditions: human, whole blood, oral, 16 mg, T1/2, sirolimus 16 mg, with ketoconazole, n=2
Measurement name: half-life (h)
Provide only the numeric value, understood in h.

Summary for this molecule, CO[C@H]1C[C@@H]2CC[C@@H](C)[C@@](O)(O2)C(=O)C(=O)N2CCCC[C@H]2C(=O)O[C@H]([C@H](C)C[C@@H]2CC[C@@H](O)[C@H](OC)C2)CC(=O)[C@H](C)/C=C(\C)[C@@H](O)[C@@H](OC)C(=O)[C@H](C)C[C@H](C)/C=C/C=C/C=C/1C [Sirolimus] : half-life is 32

---

Test: Sirolimus whole blood pharmacokinetics
Type: in vivo, human
Conditions: human, whole blood, oral, 30 mg, Cmax [SD], sirolimus alone study, 4 hours apart (total 60 mg), N=5, mean
Measurement name: Cmax (ng/mL)
Please give a number only; it is taken to be in ng/mL.

Form: compound = CO[C@H]1C[C@@H]2CC[C@@H](C)[C@@](O)(O2)C(=O)C(=O)N2CCCC[C@H]2C(=O)O[C@H]([C@H](C)C[C@@H]2CC[C@@H](O)[C@H](OC)C2)CC(=O)[C@H](C)/C=C(\C)[C@@H](O)[C@@H](OC)C(=O)[C@H](C)C[C@H](C)/C=C/C=C/C=C/1C ; Cmax = 32.9

---

Assay: Sirolimus whole blood pharmacokinetics
Assay type: in vivo, human
Settings: human, whole blood, oral, 30 mg, AUC [SD], sirolimus alone study, 4 hours apart (total 60 mg), N=5, mean
Measurement name: AUC (ng·h/mL)
Answer with a number only, understood to be in ng·h/mL.

Please fill in: AUC reported for CO[C@H]1C[C@@H]2CC[C@@H](C)[C@@](O)(O2)C(=O)C(=O)N2CCCC[C@H]2C(=O)O[C@H]([C@H](C)C[C@@H]2CC[C@@H](O)[C@H](OC)C2)CC(=O)[C@H](C)/C=C(\C)[C@@H](O)[C@@H](OC)C(=O)[C@H](C)C[C@H](C)/C=C/C=C/C=C/1C = 2050
